# Tested on: Estrogen receptor (Homo sapiens)
# Sequence (P03372 whole entry): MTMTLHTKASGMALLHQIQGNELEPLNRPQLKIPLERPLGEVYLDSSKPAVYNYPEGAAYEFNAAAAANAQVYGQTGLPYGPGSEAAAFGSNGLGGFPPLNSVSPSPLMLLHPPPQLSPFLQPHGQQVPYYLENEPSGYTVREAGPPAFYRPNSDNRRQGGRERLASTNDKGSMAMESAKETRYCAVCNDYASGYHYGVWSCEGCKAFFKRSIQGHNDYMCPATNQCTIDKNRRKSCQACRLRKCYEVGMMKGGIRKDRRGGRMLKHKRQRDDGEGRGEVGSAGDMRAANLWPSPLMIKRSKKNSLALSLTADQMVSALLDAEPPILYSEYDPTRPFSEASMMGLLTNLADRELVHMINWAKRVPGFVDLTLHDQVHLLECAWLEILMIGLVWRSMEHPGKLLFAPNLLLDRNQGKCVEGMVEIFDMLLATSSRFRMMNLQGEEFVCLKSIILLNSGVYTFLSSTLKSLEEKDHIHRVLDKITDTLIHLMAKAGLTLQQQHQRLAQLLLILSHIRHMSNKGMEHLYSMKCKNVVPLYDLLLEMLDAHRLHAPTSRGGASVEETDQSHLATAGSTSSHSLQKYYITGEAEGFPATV
# Assay comment: Downregulation of ERalpha in human MCF7 cells after 4 hrs by Western blot analysis
# Type: cell-based
Measurement label: pIC50
Answers are plain numbers, as −log10 of the molar value.

Qu. Consider the compound `CCC(=C(c1ccc(/C=C/C(=O)O)cc1)c1ccc(B(O)O)cc1)c1ccccc1` and give its measured pIC50.
Ans. 6.68

Cited source: ChEMBL document CHEMBL3875228
